Each record here notes measured IC50.
target: Potassium voltage-gated channel subfamily A member 3 (Homo sapiens); assay: Inhibition of Kv1.3 ion channel. Measured in the Rb_Kv assay: [86Rb+] efflux from CHO cells stably transfected with Kv1.3 channel.; format: functional, cell-based
Sequence (P22001 whole entry): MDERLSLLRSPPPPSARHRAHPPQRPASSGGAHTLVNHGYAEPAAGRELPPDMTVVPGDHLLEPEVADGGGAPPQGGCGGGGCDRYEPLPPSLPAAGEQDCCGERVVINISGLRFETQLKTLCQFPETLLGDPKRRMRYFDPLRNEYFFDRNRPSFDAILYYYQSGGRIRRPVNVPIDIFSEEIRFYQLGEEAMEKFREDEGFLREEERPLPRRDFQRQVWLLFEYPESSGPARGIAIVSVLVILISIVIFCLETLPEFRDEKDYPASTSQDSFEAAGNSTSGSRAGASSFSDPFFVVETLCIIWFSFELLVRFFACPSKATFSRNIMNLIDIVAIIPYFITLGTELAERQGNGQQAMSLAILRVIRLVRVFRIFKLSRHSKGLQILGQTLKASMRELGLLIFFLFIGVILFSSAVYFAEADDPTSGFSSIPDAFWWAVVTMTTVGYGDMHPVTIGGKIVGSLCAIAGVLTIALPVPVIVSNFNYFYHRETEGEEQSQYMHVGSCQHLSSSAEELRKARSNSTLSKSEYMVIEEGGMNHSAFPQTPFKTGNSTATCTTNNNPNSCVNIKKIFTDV

Below, 2 compounds whose answers are already recorded.
COc1ccccc1S(=O)(=O)NCC1(c2ccccc2)CCC(=O)CC1 > 30 µM
O=C1CCC(CNC(=O)c2ccccc2)(c2ccccc2)CC1 > 30 µM

Below: the item to evaluate.
QUERY: Could you share which IC50 value was measured for `COc1ccccc1C(=O)NCC1CCCCC1` ?
RESULT: > 30 µM

----------
molecular target: Potassium voltage-gated channel subfamily A member 3 (Homo sapiens); test: Inhibition of Kv1.3 ion channel. Measured in the Rb_Kv assay: [86Rb+] efflux from CHO cells stably transfected with Kv1.3 channel.; type: functional, cell-based
test.readout: IC50 (nM)

Below, 3 compounds whose answers are already recorded.
C=CCN(C)C(=O)O[C@H]1CC[C@@](CNC(=O)c2ccccc2OC)(c2ccccc2)CC1 320
CCCC(=O)N[C@H]1CC[C@@](CNC(=O)c2ccccc2OC)(c2ccccc2)CC1 200
COc1ccccc1C(=O)NC[C@]1(c2ccccc2)CC[C@H](NC(=O)c2ccccc2)CC1 75

A: COc1ccccc1C(=O)NC[C@]1(c2ccccc2)CC[C@@H](NC(=O)Cc2ccccc2)CC1
B: O=C1CCC(CNC(=O)c2cccc(Cl)c2)(c2ccccc2)CC1
QUERY: Between item A and item B , which reported IC50 is smaller? Answer by quoting the chosen item's label.
RESULT: A
